Compiled record: Ki values for Urokinase-type plasminogen activator (Homo sapiens, UniProt P00749) across several sources.
// returns False unless Ki is strictly below 0.8 µM, in which case True

Lookup: Confirm or reject: Ki of O=C(CNC(=O)C(CCc1cccc[n+]1[O-])NS(=O)(=O)Cc1ccccc1)NCc1ccc(Cl)s1 (stereo unspecified) lies strictly below 0.8 µM
Found: False

Lookup: Answer whether the compound N=C(N)c1ccc(CS)s1 has Ki strictly less than 0.8 µM
Found: False

Lookup: Does this compound meet the criterion Ki < 0.8 µM? NCCC(=O)Nc1cccc(S(=O)(=O)N[C@@H](Cc2ccc(CN)cc2)C(=O)N2CCC(CCN)CC2)c1
Found: False

Lookup: Determine whether this compound shows Ki lower than 0.8 µM (ties excluded): N=C(N)Nc1ncc(Cl)cc1/C=C/C(=O)N1CCOCC1
Found: False

Lookup: In plain terms, does N=C(N)c1ccc2[nH]c(-c3cc(CCC(=O)O)cc(Br)c3O)c(Cc3ccccc3)c2c1 come in under 0.8 µM for Ki?
Found: True

Lookup: A record lists CSc1sc(C(=N)N)cc1-c1nc(-c2ccccc2)c(-c2ccccc2)s1 . Is its Ki below 0.8 µM?
Found: False

Lookup: hey, is Ki for COC(=O)[C@@H]1CCCCN1C(=O)[C@H](Cc1cccc(C(=N)N)c1)NS(=O)(=O)c1cccc(NC(=O)CCN)c1 lower than 0.8 µM or not?
Found: False

Lookup: Dear reviewer, please state whether N=C(N)c1cccc(C[C@H](NS(=O)(=O)c2ccc(C3CCCCC3)cc2)C(=O)N2CCNCC2)c1 has Ki strictly beneath 0.8 µM.
Found: False

Lookup: In plain terms, does NCc1ccc(Cl)cc1CNC(=O)CNC(=O)C(CCc1cccc[n+]1[O-])NS(=O)(=O)CC(=O)O (stereo unspecified) come in under 0.8 µM for Ki?
Found: False

Lookup: Please state whether Ki is below 0.8 µM for N=C(N)Nc1nccc2ccc(OCc3ccccc3)cc12
Found: False

Lookup: A record lists Cc1ccc(NC(=N)N)nc1 . Is its Ki below 0.8 µM?
Found: False

Lookup: Please check: Ki for COc1ccc(-n2nc(C(N)=O)c3ncn(-c4ccc(-c5ccccc5CN5CCCC5)cc4F)c(=O)c32)cc1 , strictly under 0.8 µM or not?
Found: False

Lookup: Does the reported Ki of the following compound sit strictly below 0.8 µM? N=C(N)c1cc2c(OC(COC(=O)Nc3cccc(F)c3)c3ccccc3)cccc2s1 (stereo unspecified)
Found: False

Lookup: Does NCc1ccc(Cl)cc1CNC(=O)[C@H](CCC(=O)O)NC(=O)C(CCc1cccc[n+]1[O-])NS(=O)(=O)Cc1ccccc1 (stereo partly specified) have Ki strictly under 0.8 µM?
Found: False

Lookup: Identify whether the compound CSc1sc(C(=N)N)cc1-c1csc(NCCN2CCCCC2)n1 records Ki below 0.8 µM.
Found: False

Lookup: Record COc1ccc(C#N)cc1-c1ccc2c(Cl)cnc(N=C(N)N)c2c1 : is its Ki strictly below 0.8 µM?
Found: True

Lookup: Does this compound meet the criterion Ki < 0.8 µM? CSc1sc(C(=N)N)cc1-c1csc(N)n1
Found: False

Lookup: Ki strictly < 0.8 µM for this compound? N=C(N)c1cc2c(OC(COC(=O)NCc3ccccc3)c3ccccc3)cccc2s1 (stereo unspecified)
Found: True

Lookup: Hi there! Is Ki for C[C@H](NS(=O)(=O)c1ccc2c(Cl)cnc(N=C(N)N)c2c1)C(=O)O below 0.8 µM, do you know?
Found: True

Lookup: In plain terms, does COc1cccc2c(N=C(N)N)nccc12 come in under 0.8 µM for Ki?
Found: False
